Record form. Attribute: pIC50. Fill in for each entry.
Tested on: HSB-2 cells
Experiment: Inhibition of HSB-2 leukemic cell line proliferation (WST-1)
Type: cell-based, human
Details: Homo sapiens, HSB2, 48 h, cytotoxicity on HSB-2 cells, two days incubation, WST-1 read-out
Would you please state pIC50, meaning minus log10 of the concentration in mol/L, as a bare number?

pIC50 lookup needed for Nc1nc(N2CCN(C(=O)COc3ccc(Cl)cc3)CC2)c2nc(-c3ccc(Cl)cc3)[nH]c2n1 , thanks.
5.65

pIC50 lookup needed for Nc1nc(N2CCN(C(=O)COc3ccc(Cl)cc3)CC2)c2nc(-c3cccc(Cl)c3)[nH]c2n1 , thanks.
5.86

pIC50 lookup needed for Nc1nc(N2CCN(C(=O)COc3ccc(Cl)cc3)CC2)c2nc(CCc3cccs3)sc2n1 , thanks.
5.39

pIC50 lookup needed for COc1ccc(OCC(=O)N2CCN(c3nc(N)nc4sc(Cc5ccc(F)cc5)nc34)CC2)cc1 , thanks.
5.66

pIC50 lookup needed for COc1ccc(OCC(=O)N2CCN(c3nc(N)nc4sc(-c5ccc(Cl)cc5)nc34)CC2)cc1 , thanks.
6.74

---

Test system: HSB-2 cells
Test: Inhibition of HSB-2 leukemic cell line proliferation (WST-1)
Assay type: cell-based, human
Conditions: Homo sapiens, HSB2, 48 h, cytotoxicity on HSB-2 cells, two days incubation, WST-1 read-out
Metric: IC50

IC50 lookup needed for Nc1nc(N2CCN(C(=O)COc3ccc(F)cc3)CC2)c2nc(-c3ccc(F)cc3)sc2n1 , thanks.
> 10 µM

IC50 lookup needed for Nc1nc(N2CCN(C(=O)COc3ccc(Cl)cc3)CC2)c2nc(C3CC3)oc2n1 , thanks.
> 10 µM

IC50 lookup needed for Nc1nc(N2CCN(C(=O)COc3ccccc3)CC2)c2nc(CCc3ccc(F)cc3)sc2n1 , thanks.
> 10 µM

IC50 lookup needed for Nc1nc(N2CCN(C(=O)COc3cccc([N+](=O)[O-])c3)CC2)c2nc(CCc3ccc(F)cc3)sc2n1 , thanks.
> 10 µM

IC50 lookup needed for Nc1nc(N2CCN(C(=O)COc3ccc(Cl)cc3)CC2)c2nc(CCc3ccccc3)oc2n1 , thanks.
> 10 µM

IC50 lookup needed for CC(=O)c1ccc(OCC(=O)N2CCN(c3nc(N)nc4sc(CCc5ccc(F)cc5)nc34)CC2)cc1 , thanks.
> 10 µM

IC50 lookup needed for Nc1nc(N2CCN(C(=O)CCc3ccccc3)CC2)c2cc(-c3ccc(F)cc3)sc2n1 , thanks.
> 10 µM

IC50 lookup needed for Nc1nc(N2CCN(C(=O)COc3ccccc3)CC2)c2nc(-c3ccc(F)cc3)[nH]c2n1 , thanks.
> 10 µM

---

Tested on: HSB-2 cells
Assay: Inhibition of HSB-2 leukemic cell line proliferation (WST-1)
Type: cell-based, human
Conditions: Homo sapiens, HSB2, 48 h, cytotoxicity on HSB-2 cells, two days incubation, WST-1 read-out
Record form. Attribute: IC50. Fill in for each entry.

IC50 lookup needed for Nc1nc(N2CCN(C(=O)COc3ccc(Cl)cc3)CC2)c2nc(CCc3ccc(F)cc3)oc2n1 , thanks.
> 10 µM

IC50 lookup needed for COCc1nc2c(N3CCN(C(=O)COc4ccc(Cl)cc4)CC3)nc(N)nc2o1 , thanks.
> 10 µM

IC50 lookup needed for COc1ccc(OCC(=O)N2CCN(c3nc(N)nc4sc(CCc5ccc(OC)c(OC)c5)nc34)CC2)cc1 , thanks.
> 10 µM
